- EXPERIMENTAL_SYSTEM: Indoleamine 2,3-dioxygenase 1 (Homo sapiens)
- Sequence (P14902 whole entry, looked up): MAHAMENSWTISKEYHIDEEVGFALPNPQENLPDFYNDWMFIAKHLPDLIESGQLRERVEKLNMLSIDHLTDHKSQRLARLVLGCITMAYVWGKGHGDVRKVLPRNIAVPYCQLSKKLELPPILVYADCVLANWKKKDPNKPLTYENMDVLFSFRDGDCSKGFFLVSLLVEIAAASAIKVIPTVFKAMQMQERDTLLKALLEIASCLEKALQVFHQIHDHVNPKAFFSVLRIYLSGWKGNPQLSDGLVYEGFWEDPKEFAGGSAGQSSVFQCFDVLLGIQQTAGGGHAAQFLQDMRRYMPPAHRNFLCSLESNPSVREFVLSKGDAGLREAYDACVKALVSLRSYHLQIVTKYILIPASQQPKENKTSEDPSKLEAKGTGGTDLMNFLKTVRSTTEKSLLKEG
- METHOD_NOTES: Inhibition of IDO1 (unknown origin) assessed as reduction in N'-formlylkynurenine formation at 1 uM using D-Tryptophan as substrate in presence of ascorbate and methylene blue relative to control
MEASURE_NAME: inhibition (%)
Express your answer in %, writing the number without its unit.

Example compounds with recorded inhibition:
CPD_SMILES | EXPERIMENTAL_SYSTEM | inhibition / %
O=C1c2cccnc2C(=O)c2c1c(C(=O)O)c1cc(I)ccn21 | Indoleamine 2,3-dioxygenase 1 (Homo sapiens) | 67
CN(C)CCNC(=O)c1c2c(n3ccccc13)C(=O)c1ccccc1C2=O | Indoleamine 2,3-dioxygenase 1 (Homo sapiens) | 27
O=C(O)c1cccc(NC(=O)c2c3c(n4ccccc24)C(=O)c2cccnc2C3=O)c1 | Indoleamine 2,3-dioxygenase 1 (Homo sapiens) | 71.5

Note to self: inhibition recorded for O=C1c2cccnc2C(=O)c2c1c(C(=O)Nc1ccccc1)c1ccccn21 was 68

Note to self: inhibition recorded for CN(C)CCNC(=O)c1c2c(n3ccccc13)C(=O)c1cccnc1C2=O was 77
